Tested on: SW480
test method notes: TCF/Wnt firefly luciferase reporter signal relative to plate median (fraction of plate median); higher = higher Wnt reporter signal
experimental parameters: 5 µM; treatment time 24 h; reporter: 7TFP
Think of 1 as a floor: if TCF/Wnt firefly luciferase reporter signal stands on it or above, it is label 1; beneath it, label 0.

Kindly determine if TCF/Wnt firefly luciferase reporter signal recorded for "N#C[C@H](O[C@@H]1O[C@H](CO[C@@H]2O[C@H](CO)[C@@H](O)[C@H](O)[C@H]2O)[C@@H](O)[C@H](O)[C@H]1O)c1ccccc1" is above or exactly 1.
label 0

Exam item: decide whether the reported TCF/Wnt firefly luciferase reporter signal for "OC[C@@H]1CCCN2CCCC[C@H]12" is at least 1.
label 0

Could you please find out whether "CC[C@@H](C(=O)[C@@H](C)[C@@H](O)[C@H](C)[C@@H]1O[C@@H]([C@@H](CC)C(=O)O)CC[C@@H]1C)[C@H]1O[C@]2(C=C[C@@H](O)[C@]3(CC[C@@](C)([C@H]4CC[C@](O)(CC)[C@H](C)O4)O3)O2)[C@H](C)C[C@@H]1C" has TCF/Wnt firefly luciferase reporter signal that meets 1 or exceeds it?
label 0

Does the reported TCF/Wnt firefly luciferase reporter signal for CN1CCc2cc3c(cc2C1O)OCO3 (centres undefined) fall at or above the 1 mark?
label 0

Entry COc1cccc(C2(O)CCCCC2CN(C)C)c1 (centres undefined) : is its TCF/Wnt firefly luciferase reporter signal no less than 1?
label 1

Continuing:
Decide: is the reported value of TCF/Wnt firefly luciferase reporter signal for "CCC[C@H]1CCCCN1" equal to or greater than 1?
label 1

Is TCF/Wnt firefly luciferase reporter signal at least 1? Consider "COc1cc2c(cc1-c1cc3cc4ccoc4cc3oc1=O)OCO2"
label 0

Entry "CN1CCc2cc3c(cc2[C@H]1[C@@H]1OC(=O)c2c1ccc1c2OCO1)OCO3" : is its TCF/Wnt firefly luciferase reporter signal no less than 1?
label 1

###

Listing of entries alongside the reported cell viability.
Tested on: SW480
test method notes: cell viability (CellTiter-Glo) relative to plate median (fraction of plate median); higher = more viable cells
experimental parameters: 5 µM; treatment time 24 h; reporter: 7TFP

Below: 10 compounds and their reported cell viability.
Which cell viability value is on record for "CC(=O)O[C@H]1C[C@@H]2CC[C@@H]3[C@H](CC[C@@]4(C)[C@H]3C[C@H]([N+]3(C)CCCCC3)[C@@H]4OC(C)=O)[C@@]2(C)C[C@@H]1[N+]1(C)CCCCC1" ?
0.963

Field request: cell viability | item: CC(NC(C)(C)C)C(=O)c1cccc(Cl)c1 (centres undefined)
1.02

Data request, read-out cell viability, for C/C(=C\c1csc(C)n1)[C@@H]1C[C@@H]2O[C@@H]2CCC[C@H](C)[C@H](O)[C@@H](C)C(=O)C(C)(C)[C@@H](O)CC(=O)O1 [Epothilone A]
1.14

For Nc1ccccc1C(=O)O [Anthranilic acid] , what is its reported cell viability?
0.98

What value of measured cell viability is listed for COc1cc2c(c3oc4cccc(O)c4c(=O)c13)[C@@H]1C=CO[C@@H]1O2 [Sterigmatocystin] ?
1.08

I would be grateful if you could share the reported cell viability for O=P1(NCCCl)OCCCN1CCCl (centres undefined) .
0.973

cell viability for "COc1ccc2[nH]cc(CCN)c2c1" ?
1.04

I'd like to know its cell viability. The compound in question is "COc1cc2c(cc1OC)[C@@]13CCN4CC5=CCO[C@H]6CC(=O)N2[C@H]1[C@H]6[C@H]5C[C@H]43"
1.04

So what does the record say about cell viability for "N.N.[Cl][Pt][Cl]" ?
1.02

What does the data say about its cell viability? Entry: C/C=C/[C@H]1O[C@@](O)([C@@H](C)[C@H](O)[C@H](C)[C@H]2OC(=O)/C(OC)=C/C(C)=C/[C@@H](C)[C@@H](O)[C@@H](CC)[C@@H](O)[C@H](C)C/C(C)=C/C=C/[C@@H]2OC)C[C@@H](O[C@H]2C[C@@H](O)[C@H](OC(N)=O)[C@@H](C)O2)[C@@H]1C [Concanamycin A]
1.04

More entries:
Given the entry "C[C@@H]1CC[C@@]2(OC1)O[C@H]1[C@@H](O)[C@H]3[C@@H]4CC[C@H]5C[C@@H](O[C@@H]6O[C@H](CO)[C@H](O[C@@H]7O[C@H](CO)[C@@H](O)[C@H](O[C@@H]8OC[C@@H](O)[C@H](O)[C@H]8O)[C@H]7O[C@@H]7O[C@H](CO)[C@H](O)[C@H](O[C@@H]8O[C@H](CO)[C@@H](O)[C@H](O)[C@H]8O)[C@H]7O)[C@H](O)[C@H]6O)[C@H](O)C[C@]5(C)[C@H]4CC[C@]3(C)[C@H]1[C@@H]2C" , report its measured cell viability.
1.03

// lookup cell viability for "C=CCc1cc(OC)c2c(c1OC)OCO2"
0.994

Which cell viability is listed for "Cc1cc2c(C(C)C)c(O)c(O)c(C=O)c2c(O)c1-c1c(C)cc2c(C(C)C)c(O)c(O)c(C=O)c2c1O" ?
0.976

Request the reported cell viability associated with "COP(=O)(OC)OC=C(Cl)Cl"
0.994
